study.system: human muscarinic M1 receptor (Homo sapiens)
Sequence (P11229 whole entry): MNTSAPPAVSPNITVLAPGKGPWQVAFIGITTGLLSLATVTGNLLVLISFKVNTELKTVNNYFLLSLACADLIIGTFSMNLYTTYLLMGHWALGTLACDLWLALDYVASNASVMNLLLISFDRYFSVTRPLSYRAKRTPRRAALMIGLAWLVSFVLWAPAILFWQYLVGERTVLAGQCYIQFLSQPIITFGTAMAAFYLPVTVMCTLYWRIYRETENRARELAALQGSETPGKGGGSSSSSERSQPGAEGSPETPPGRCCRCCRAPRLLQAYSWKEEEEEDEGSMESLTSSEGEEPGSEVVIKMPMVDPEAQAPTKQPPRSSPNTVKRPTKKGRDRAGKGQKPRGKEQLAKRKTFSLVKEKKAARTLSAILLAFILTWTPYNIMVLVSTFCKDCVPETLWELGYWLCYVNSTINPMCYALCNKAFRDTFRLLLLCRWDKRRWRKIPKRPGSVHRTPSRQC
measurement.description: Alphascreen Surefire phospho-ERK1/2 functional assay, M1
Type: cell-based
reported.conditions: CHO cells stably expressing human M1; phospho-ERK1/2; read-out: pEC50 M1 (converted)
metric.name: EC50 (µM)

In [3]: df
Out[3]:
                                   compound  metric_name  units_text  assay_result
0  CCOC(=O)N[C@H]1CCN(C2CCC(C#N)(c3ccc(F)cc3)CC2)C1 (single isomer, unassigned) [1-4 Isomer 2]         EC50          µM        0.0355
1  CCOC(=O)N[C@@H]1CCN(C2CCC(C#N)(c3ccccc3F)CC2)C1 (single isomer, unassigned) [1-5 Isomer 2]         EC50          µM         0.115
2  CCOC(=O)N[C@@H]1CCN(C2CCC3(CC2)C(=O)Nc2ccccc23)C1 (single isomer, unassigned) [2-2 isomer 1]         EC50          µM         0.158
3  Cc1noc(C2CC3(CCN(C4CCC(C#N)(c5ccc(F)cn5)CC4)C3)C2)n1 (single isomer, unassigned) [21-3 Isomer 4]         EC50          µM         0.162
4  CCOC(=O)N[C@H]1CCN(C2CCC3(CC2)C(=O)Nc2cc(F)ccc23)C1 (single isomer, unassigned) [2-7 isomer 2]         EC50          µM        0.0525
5  CCOC(=O)N[C@H]1CCN(C2CCC(C#N)(c3ccc(F)cn3)CC2)C1 (single isomer, unassigned) [1-14 Isomer 2]         EC50          µM         0.123
